The values you see were collected from patent US20240018502A1.

Exercise: state measured EC50 hC3 cleavage for each of the binders provided.
Biological target: plasma purified human complement protein C3 (human) (UniProt P01024)
Sequence (P01024 23-667, chain 1 of 2): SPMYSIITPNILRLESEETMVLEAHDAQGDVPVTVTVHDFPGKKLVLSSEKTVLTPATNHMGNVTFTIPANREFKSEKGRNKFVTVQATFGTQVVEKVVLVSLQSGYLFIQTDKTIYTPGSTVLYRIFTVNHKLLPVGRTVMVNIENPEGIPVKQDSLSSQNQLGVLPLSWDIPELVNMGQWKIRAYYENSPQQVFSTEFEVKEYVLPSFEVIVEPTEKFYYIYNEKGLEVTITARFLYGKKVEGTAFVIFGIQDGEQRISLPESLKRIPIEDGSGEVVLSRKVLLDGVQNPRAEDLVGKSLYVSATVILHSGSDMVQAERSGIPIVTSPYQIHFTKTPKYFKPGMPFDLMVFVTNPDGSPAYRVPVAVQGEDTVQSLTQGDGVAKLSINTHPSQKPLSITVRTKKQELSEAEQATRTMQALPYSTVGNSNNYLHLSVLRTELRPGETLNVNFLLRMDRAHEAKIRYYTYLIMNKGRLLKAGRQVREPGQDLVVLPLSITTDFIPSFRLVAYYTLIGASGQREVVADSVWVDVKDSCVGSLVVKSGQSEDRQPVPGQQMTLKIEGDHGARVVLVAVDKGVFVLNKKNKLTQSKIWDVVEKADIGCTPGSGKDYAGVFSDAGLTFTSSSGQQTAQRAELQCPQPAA
Sequence (P01024 672-1663, chain 2 of 2): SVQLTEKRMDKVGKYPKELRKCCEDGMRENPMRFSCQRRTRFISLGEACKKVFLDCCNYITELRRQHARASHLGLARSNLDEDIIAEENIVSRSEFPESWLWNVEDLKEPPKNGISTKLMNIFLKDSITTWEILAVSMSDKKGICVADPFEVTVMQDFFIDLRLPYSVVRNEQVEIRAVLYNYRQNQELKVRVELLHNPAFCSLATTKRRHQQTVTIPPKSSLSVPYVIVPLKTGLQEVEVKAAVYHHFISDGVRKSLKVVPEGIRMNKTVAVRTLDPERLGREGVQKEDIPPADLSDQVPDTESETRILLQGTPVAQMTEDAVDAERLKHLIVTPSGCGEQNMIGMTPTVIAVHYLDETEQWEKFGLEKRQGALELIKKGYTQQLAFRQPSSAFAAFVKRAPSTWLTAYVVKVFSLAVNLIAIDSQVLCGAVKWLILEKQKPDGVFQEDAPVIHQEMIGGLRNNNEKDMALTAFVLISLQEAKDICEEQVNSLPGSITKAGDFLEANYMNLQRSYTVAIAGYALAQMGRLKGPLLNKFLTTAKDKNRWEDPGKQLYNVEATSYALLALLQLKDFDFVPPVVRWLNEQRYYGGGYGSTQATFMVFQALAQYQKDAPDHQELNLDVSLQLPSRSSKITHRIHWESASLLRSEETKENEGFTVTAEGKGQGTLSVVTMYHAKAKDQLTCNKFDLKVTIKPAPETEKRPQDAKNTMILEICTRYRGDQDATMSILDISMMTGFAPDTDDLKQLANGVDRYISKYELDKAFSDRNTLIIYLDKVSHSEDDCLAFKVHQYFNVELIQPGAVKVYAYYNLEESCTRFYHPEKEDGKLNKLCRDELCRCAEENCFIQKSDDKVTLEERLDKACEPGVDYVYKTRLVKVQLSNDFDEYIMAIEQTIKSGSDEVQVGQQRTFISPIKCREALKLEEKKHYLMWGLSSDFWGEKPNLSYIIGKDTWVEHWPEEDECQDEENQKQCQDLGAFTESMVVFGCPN
Assay: cell-based or functional assay
Just the number please, in nM, no unit attached.

In: # return recorded EC50 hC3 cleavage for input MTSP-1 protease domain I41D/F99L/C122S/Q192T (enzyme) VVGGTDADEGEWPWQVSLHALGQGHDCGASLISPNWLVSAAHCYIDDRGFRYSDPTQWTAFLGLHDQSQRSAPGVQERRLKRIISHPFFNDFTLDYDIALLELEKPAEYSSMVRPISLPDASHVFPAGKAIWVTGWGHTQYGGTGALILQKGEIRVINQTTCENLLPQQITPRMMCVGFLSGGVDSCTGDSGGPLSSVEADGRIFQAGVVSWGDGCAQRNKPGVYTRLPLFRDWIKENTGV
Out: 59.4

In: # return recorded EC50 hC3 cleavage for input MTSP-1 protease domain Q38H/I41S/D60bT/Y60gW/ins97aV/F97D/T98P/F99L/C122S/G151H/Q175L/Q192E (enzyme) VVGGTDADEGEWPWQVSLHALGHGHSCGASLISPNWLVSAAHCYIDTRGFRWSDPTQWTAFLGLHDQSQRSAPGVQERRLKRIISHPFFNDDVPLDYDIALLELEKPAEYSSMVRPISLPDASHVFPAGKAIWVTGWGHTQYGGTHALILQKGEIRVINQTTCENLLPQLITPRMMCVGFLSGGVDSCEGDSGGPLSSVEADGRIFQAGVVSWGDGCAQRNKPGVYTRLPLFRDWIKENTGV
Out: 10.4

In: # return recorded EC50 hC3 cleavage for input MTSP-1 protease domain Q38H/I41S/D60bT/F60eS/Y60gW/D96F/F97Y/ins97aD/T98G/F99L/C122S/G151H/Q175L/Q192D (enzyme) VVGGTDADEGEWPWQVSLHALGHGHSCGASLISPNWLVSAAHCYIDTRGSRWSDPTQWTAFLGLHDQSQRSAPGVQERRLKRIISHPFFNFYDGLDYDIALLELEKPAEYSSMVRPISLPDASHVFPAGKAIWVTGWGHTQYGGTHALILQKGEIRVINQTTCENLLPQLITPRMMCVGFLSGGVDSCDGDSGGPLSSVEADGRIFQAGVVSWGDGCAQRNKPGVYTRLPLFRDWIKENTGV
Out: 3.13

In: # return recorded EC50 hC3 cleavage for input MTSP-1 protease domain I41D/F99L/C122S/G151N/Q175S/Q192T (enzyme) VVGGTDADEGEWPWQVSLHALGQGHDCGASLISPNWLVSAAHCYIDDRGFRYSDPTQWTAFLGLHDQSQRSAPGVQERRLKRIISHPFFNDFTLDYDIALLELEKPAEYSSMVRPISLPDASHVFPAGKAIWVTGWGHTQYGGTNALILQKGEIRVINQTTCENLLPQSITPRMMCVGFLSGGVDSCTGDSGGPLSSVEADGRIFQAGVVSWGDGCAQRNKPGVYTRLPLFRDWIKENTGV
Out: 28.6
